# System: DU-145
# assaySummary: NCI tumour cell line growth inhibition, 48 h
Calls of active or inactive are those of the source. No stated cut-off is given here; in the data, active = GI50 up to about 1.1 µM and inactive = higher. Where a SMILES comes first, the peptide text is derived from it. [ ]: non-standard residue; d: D form. The star is where a group is joined. Bn2Val = CC(C)[C@@H](C(=O)*)N(Cc1ccccc1)Cc1ccccc1; NH(3,4-diMeO-benzyl) = COc1ccc(CN*)cc1OC; NMeV = CN[C@H](C(=O)O)C(C)C
Hello, when you answer, please use one of the following outcomes: active, inactive

// below: answered compounds
>>> category("O=C(O)C1CCCN1C(=O)c1cc(Cl)ccn1 (stereo not given)")
"inactive"
>>> category("COc1c(OC)c(O)c2c(=O)c(OC)c(-c3ccc4c(c3)OCO4)oc2c1O")
"inactive"
>>> category("Cc1ccc(Nc2nc3c(=O)n(C)c(=O)n(C)c3nc2Nc2ccc(C)cc2)cc1")
"inactive"
>>> category("[N-]=[N+]=CC(=O)OCC1NC(=O)C(COC(=O)C=[N+]=[N-])NC1=O (stereo not given)")
"inactive"
>>> category("COc1ccc(CNC(=O)[C@@H]2CCCN2C(=O)[C@@H]2CCCN2C(=O)[C@H](C(C)C)N(C)C(=O)[C@@H](NC(=O)[C@H](C(C)C)N(Cc2ccccc2)Cc2ccccc2)C(C)C)cc1OC (Bn2Val-V[NMeV]PP-{NH(3,4-diMeO-benzyl)})")
"inactive"
>>> category("COc1ccccc1/C=C/C1=NN(c2cccc(S(=O)(=O)O)c2)C2(C1)SCC(=O)N2c1nc2ccccc2s1 (stereo not given)")
"inactive"
>>> category("O=S(=O)(SC1=NCCN1)c1ccc2ccccc2c1")
"inactive"
>>> category("Cc1cccc(O)c1-c1nnc(CCCCCCCCc2nnc(-c3c(C)cccc3O)n2N)n1N")
"inactive"
>>> category("O=c1[nH]nc(Cc2ccccc2)n1/N=C/c1c(O)ccc2ccccc12")
"inactive"
>>> category("COc1cccc(N2C(=O)C3c4[nH]c5ccc(C)cc5c4C4CCC(C(C)(C)C)CC4C3C2=O)c1 (stereo not given)")
"inactive"

**Q:** Dear all, I need the recorded test outcome for O=C1c2ccccc2C(=O)[C@@]23O[C@@]12C1(Oc2cccc4cccc(c24)O1)[C@@H]1O[C@@H]1[C@@H]3O , thank you.
**A:** inactive

**Q:** Check the results log: what was the call for CCNC1=C(NC(=O)c2ccc(F)cc2)C(=O)c2ccccc2C1=O ?
**A:** inactive

**Q:** What was the test verdict on CO[C@H]1[C@@H](O)[C@@H](C)O[C@@H](O[C@H]2CC[C@@]3(C)[C@H](CC[C@@H]4[C@@H]3CC[C@]3(C)[C@@H](C5=CC(=O)OC5)[C@@H](OC(C)=O)C[C@]43O)C2)[C@@H]1O [NERITALOSIDE] ?
**A:** active

**Q:** For Cc1cccc2cc3ccc4ccccc4c3cc12 , what call appears in the results of this test?
**A:** inactive

**Q:** Query: recorded result category for CCCCCCN1C(=O)CC(=O)N(CCCCCC)S1(=O)=O in this test
**A:** inactive

---

# System: NCI-H460
# assaySummary: NCI tumour cell line growth inhibition, 48 h
Active and inactive are the calls of the source. No stated cut-off is given here; in the data, active = GI50 up to about 1.1 µM and inactive = higher.
Listing: GI50 of selected molecules

>>> val("Cc1ccc(C)c(N2C(=O)C(=O)C(c3nc4ccccc4o3)C(=O)C2=O)c1")
"> 100 µM (inactive)"
>>> val("CC1(C)NC2C(=O)c3c([nH]c4ccccc34)[C@]3(C)CCC1CC23 (some centres undefined)")
"> 100 µM (inactive)"
>>> val("C/C(CC(O)(C(F)(F)Cl)C(F)(F)Cl)=N\\Nc1ccccc1")
"29.7 µM (inactive)"
>>> val("COc1cc(C(C)O)c(S(=O)(=O)CC(C)O)nn1 (centres undefined)")
"> 100 µM (inactive)"
>>> val("C=CCOc1ccccc1/N=N/C(C#N)=N\\Nc1ccccc1OCC=C")
"> 100 µM (inactive)"

**Q:** Given O=[N+]([O-])c1ccc(Cl)cc1/C=N/C12CC3CC(CC(C3)C1)C2 , respond with its GI50.
**A:** > 74 µM (inactive)

**Q:** Using known records, supply GI50 for CC(=O)Nc1c(C)cc2c(nc3n2CCC3O)c1[N+](=O)[O-] (centres undefined)
**A:** > 100 µM (inactive)

**Q:** State, in one line, measured GI50 of CCC1=C(C=O)c2cc3[nH]c(cc4nc(c5c6[nH]c(cc1n2)c(C)c6C(=O)C5C(=O)OC)C(CCC(=O)OC)C4C)c(C)c3CC (centres undefined)
**A:** > 100 µM (inactive)

**Q:** Item CC1Oc2c(c(=O)oc3ccccc23)[C@@]1(C)CC1C[C@H](C)C(=O)O1 (some centres undefined) : provide GI50
**A:** > 10 µM (inactive)
